Source listed as PubChem BioAssay AID179.

system: CEM cells HIV-1 protection, formazan growth assay; test: NCI AIDS Antiviral Assay; details: measured here: growth of uninfected CEM cells
readout-kind: IC50

// known answers, use as guide
1. COC(=O)C1(O)C(c2ccccc2)NC2(C)CCCC21 (stereo not given); > 200 µM
2. CCOC(=O)/C=C1\Oc2ccccc2C1(C)O (stereo not given); > 562 µM
3. Nc1ncnc2c1ncn2C1C[C@H](O)[C@]2(CO)C[C@H]12 (stereo not given in full); > 50.1 µM
4. COc1ccc(C)cc1S(=O)(=O)c1c(Cl)cccc1[N+](=O)[O-]; > 200 µM

Problem: // query IC50 value for entry O=C1OC(c2ccccc2)=N/C1=C\c1ccccc1O
Solution: > 26.9 µM

* * *

tested on: CEM cells HIV-1 protection, formazan growth assay; assay: NCI AIDS Antiviral Assay;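 active = compounds giving half or more protection of infected cells from virus-caused growth loss, again on retest; inactive = the rest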
Select the matching outcome among YES (active), NO (inactive)

Reference set (10 entries):
1. CCOC(=O)CSc1c([N+](=O)[O-])ncn1C; NO
2. CCCCCC/C=C\CCCCCCCCCc1cccc(OC)c1O; NO
3. O=S(OCC1COS(=O)O1)OCC1COS(=O)O1 (centres undefined); NO
4. O=C1c2c(O)cc(O)cc2O[C@@]12c1c(cc(O)c3c1O[C@H](c1ccc(O)cc1)[C@@H](O)C3)O[C@@H]2c1ccc(O)cc1; YES
5. CCN(CC)CCN(C)CCc1ccc(Br)cc1; NO
6. COC(CN1C=C(Sc2ccccc2)CC1)OC; NO
7. COC(=O)C1=C(C(=O)OC)P2(C)(C)SC(=S)N2C1(c1ccccc1)c1ccccc1; NO
8. c1ccc2c(c1)CCc1c-2n(CCN2CCCCC2)c2ccccc12; NO
9. CN1C/C(=C\c2cccs2)C2=NC(=S)NC(c3cccs3)C2C1 (centres undefined); NO
10. CCCCCCCCCCCCCCCC(=O)ON1C(=S)NC(C)(c2ccccc2)C1=S (centres undefined); NO

Problem: Field: outcome | Entry: Cc1ccc(O)c(-c2cscn2)c1
Solution: NO

Problem: Field: outcome | Entry: Cc1ccc2c(c1)C(=O)/C(=N/Nc1ccc(Cl)cc1)CCO2
Solution: NO

Problem: Field: outcome | Entry: COC(=O)C(=O)C(C(=O)OC)C(=O)C(=O)Nc1cc(Cl)c(C)cc1S(=O)(=O)O (centres undefined)
Solution: NO

Problem: Field: outcome | Entry: COc1cc(/C=C/C(=O)CC(=O)/C=C/c2cc(OC)c(O)c(OC)c2)cc(OC)c1O
Solution: NO

Problem: Field: outcome | Entry: O=C(/C=C/c1ccc(O)c(O)c1)OCCOC(=O)/C=C/c1ccc(O)c(O)c1
Solution: NO

* * *

test system: CEM cells HIV-1 protection, formazan growth assay; assay: NCI AIDS Antiviral Assay
readout-kind: EC50

// known answers, use as guide
1) Cc1cccc(C(C)C)c1NC(=O)C(=O)C(C(=O)c1ccccc1F)C1OC(=O)c2ccccc21 (stereo not given); > 200 µM
2) COc1ccc(/C(Cl)=C(\CNc2ccccn2)c2ccccc2)cc1OC; > 200 µM
3) O=C(O)C1CCC(C(=O)O)SS1 (stereo not given); > 1200 µM
4) CC(C)C(CCl)NC(=O)c1cccc(C(=O)N[C@H](CCl)C(C)C)n1 (stereo in doubt); > 69.2 µM

Attention now shifts to the item below.
Problem: // query EC50 value for entry NC(=O)C(=Cn1c(=S)[nH]c2ccccc21)C(N)=O
Solution: > 200 µM
